- Target System: Vasopressin V1b receptor (Homo sapiens)
- Sequence (P47901 whole entry): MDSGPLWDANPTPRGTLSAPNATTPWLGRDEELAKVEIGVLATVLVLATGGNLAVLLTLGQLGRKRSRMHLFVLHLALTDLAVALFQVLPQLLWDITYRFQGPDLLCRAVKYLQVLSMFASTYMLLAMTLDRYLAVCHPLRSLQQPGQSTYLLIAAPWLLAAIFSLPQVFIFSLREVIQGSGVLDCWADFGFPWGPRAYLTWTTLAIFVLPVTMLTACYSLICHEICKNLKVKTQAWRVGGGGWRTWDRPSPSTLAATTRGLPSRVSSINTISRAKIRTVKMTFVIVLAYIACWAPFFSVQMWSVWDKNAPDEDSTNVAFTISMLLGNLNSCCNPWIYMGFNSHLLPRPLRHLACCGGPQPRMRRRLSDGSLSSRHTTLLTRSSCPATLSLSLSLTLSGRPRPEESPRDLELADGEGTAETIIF
Measured Metric: pKi
Note on pKi: it is the negative log10 of concentration, concentration in mol/L.

Prompt line: Look up pKi: CS(=O)(=O)N1CCC(Oc2ccc(CC(=O)N3CCC(N4C(=O)CCc5ccccc54)CC3)c(OC/C=C\I)c2)CC1
Response line: 5.02
